Target: recombinant Mcl-1 (residues 172-327) (Homo sapiens (Human), UniProt Q07820)
Sequence (Q07820 172-327): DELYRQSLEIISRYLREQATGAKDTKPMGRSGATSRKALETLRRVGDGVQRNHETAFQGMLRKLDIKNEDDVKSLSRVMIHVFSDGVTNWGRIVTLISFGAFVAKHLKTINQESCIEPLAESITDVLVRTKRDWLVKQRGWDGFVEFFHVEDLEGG
Experiment: Bak peptide fluorescence polarization anisotropy competition assay, Mcl-1
Assay type: binding
Details: read-out: Ki for inhibition of Mcl-1
Property: Ki

1) Cc1cc(OCCCc2c(C(=O)NS(=O)(=O)CCNC(=O)c3cc(C)n(Cc4ccccc4)c3C)[nH]c3ccccc23)cc(C)c1Cl [Example 194]
101 to 299 nM
2) COC(=O)c1ccc(S(=O)(=O)NC(=O)c2[nH]c3cc(Cl)ccc3c2CCCOc2cc(C)c(Cl)c(C)c2)n1C [Example 265]
101 to 299 nM
3) Cc1cc(OCCCc2c(C(=O)NS(=O)(=O)CCCNC(=O)c3cccn3Cc3ccccc3)[nH]c3cc(Cl)ccc23)cc(C)c1Cl [Example 258]
101 to 299 nM
4) CS(=O)(=O)NC(=O)c1[nH]c2ccccc2c1CCCOc1cccc(C(F)(F)F)c1 [Example 32]
1000 to 9990 nM
5) Cc1cc(OCCCc2c(C(=O)NS(=O)(=O)CCNC(=O)c3ccno3)[nH]c3ccccc23)cc(C)c1Cl [Example 154]
501 to 999 nM
6) Cc1cccc(Cn2cccc2C(=O)NCCS(=O)(=O)NC(=O)c2[nH]c3cc(Cl)ccc3c2CCCOc2cc(C)c(Cl)c(C)c2)c1 [Example 245]
101 to 299 nM
7) CS(=O)(=O)NC(=O)c1[nH]c2ccccc2c1CCCOc1cccc2c1CCCC2 [Example 46]
1000 to 9990 nM

Each recorded value in this set is attributed to patent US10844032B2.
